Reference source for all entries: patent US20100104628A1

method: in vitro
Format: cell-based, human
reported-conditions: human, 24 hr assay, + 5 μM MIBG; read-out: Cytotoxicity IC50 of melphalan
recorded-metric: IC50 at 24 h (µM)
Give bare numbers, in µM.

Task item: Any idea what IC50 at 24 h was measured for `N[C@@H](Cc1ccc(N(CCCl)CCCl)cc1)C(=O)O` ?
Reply: 386

---

System: SK-N-BE(2c) (NET ++++)
method: cells
Assay type: cell-based
reported-conditions: 24 hr assay, 1% EtOH; read-out: Cytotoxicity IC50
recorded-metric: IC50 (µM)
Numbers only, in µM.

Task item: Find the measured IC50: item `N=C(N)NCc1ccc(CCl)c(I)c1` , target or system SK-N-BE(2c) (NET ++++).
Reply: 5
